Tested on: Acanthamoeba griffini
Assay: In vitro effect against the trophozoite stage, Alamar Blue assay
Type: cell-based
Settings: Acanthamoeba griffini, 96 h, trophozoites, mean ± SD
Procedure: The anti-Acanthamoeba activity of molecules was evaluated against the Acanthamoeba castellanii Neff (ATCC 30010) type strain from the American Type Culture Collection and Acanthamoeba griffini obtained in previous studies. […] The anti-Acanthamoeba activities of the compounds were determined by the Alamar Blue assay as previously described. […]
pIC50: −log10 of the molar value.
measuredProperty: pIC50

[
  {
    "compound": "COC(=O)[C@]12CC[C@@H](C)[C@H](C)C1C1=CCC3[C@@]4(C)CC[C@H](OC(=O)c5ccccc5)C(C)(C)C4CC[C@@]3(C)[C@]1(C)CC2 (stereo partly drawn) [Compound 8]",
    "pIC50": 4.94
  },
  {
    "compound": "COC(=O)[C@]12CC[C@@H](C)[C@H](C)C1C1=CCC3[C@@]4(C)CC[C@H](O)C(C)(C)C4CC[C@@]3(C)[C@]1(C)CC2 (stereo partly drawn) [Compound 4]",
    "pIC50": 5.06
  },
  {
    "compound": "COC(=O)[C@]12CC[C@@H](C)[C@H](C)C1C1=CCC3[C@@]4(C)CC[C@H](OC(C)=O)C(C)(C)C4CC[C@@]3(C)[C@]1(C)CC2 (stereo partly drawn) [Compound 6]",
    "pIC50": 5.04
  }
]

[A] C[C@@H]1CC[C@]2(C(=O)O)CC[C@]3(C)C(=CCC4[C@@]5(C)CCC(=O)C(C)(C)C5CC[C@]43C)C2[C@H]1C (stereo partly drawn) [Compound 3]
[B] [H]/N=C(\N/C(=N/[H])NCCCCCCNC(=N)NC(=N)Nc1ccc(Cl)cc1)Nc1ccc(Cl)cc1 [Chlorhexidine, reference compound]
Of A and B , whose reported pIC50 is numerically smaller? Response format: the label of the selected entry.
A
(A: 4.99, B: 5.43)

[A] C[C@H]1[C@H](C)CC[C@]2(C(=O)O)CC[C@]3(C)C(=CC[C@@H]4[C@@]5(C)CC[C@H](O)C(C)(C)[C@@H]5CC[C@]43C)[C@H]12 [Compound 1, Ursolic acid]
[B] COC(=O)[C@]12CC[C@@H](C)[C@H](C)C1C1=CCC3[C@@]4(C)CC[C@H](OC(=O)c5ccc([N+](=O)[O-])cc5)C(C)(C)C4CC[C@@]3(C)[C@]1(C)CC2 (stereo partly drawn) [Compound 7]
Endpoint returns the identifier whose pIC50 is numerically larger, either A or B . Response format: the label of the selected entry.
B

[P] COC(=O)[C@]12CC[C@@H](C)[C@H](C)C1C1=CCC3[C@@]4(C)CC[C@H](OC)C(C)(C)C4CC[C@@]3(C)[C@]1(C)CC2 (stereo partly drawn) [Compound 5]
[Q] CC(=O)O[C@H]1CC[C@@]2(C)C(CC[C@]3(C)C2CC=C2C4[C@@H](C)[C@H](C)CC[C@]4(C(=O)O)CC[C@]23C)C1(C)C (stereo partly drawn) [Compound 2]
Endpoint returns the identifier whose pIC50 is numerically larger, either P or Q . Response format: the label of the selected entry.
P
